test system: anaplastic large cell lymphoma cells (Karpas299); assay: In vitro potency (CellTiter-Glo, 96 h), Karpas299; assay type: cell-based; conditions: Homo sapiens, KARPAS-299, 96 h, read-out: IC50 (nmol/L) Karpas299, CPT free drugs, Table 24; CellTiter-Glo after 96 h exposure
measurement-kind: IC50 (nmol/L)
Express your answer in nmol/L, writing the number without its unit.

Consider the worked cases shown below.
>>> observed_result("CC[C@@]1(O)C(=O)OCc2c1cc1n(c2=O)Cc2c-1nc1cc3c(cc1c2CN)OCC3 [Compound 2m]")
57.2
>>> observed_result("CC[C@@]1(O)C(=O)OCc2c1cc1n(c2=O)Cc2c-1nc1cc(F)c(C)c(Br)c1c2CN [Compound 2q]")
2.6

Input line: Consider the compound CC[C@@]1(O)C(=O)OCc2c1cc1n(c2=O)Cc2c-1nc1cc3c(cc1c2CN)OCCO3 [Compound 2af] and give its measured IC50.
Output line: 6

----------
# IC50 values compiled below
system: anaplastic large cell lymphoma cells (DEL); assay: In vitro potency (CellTiter-Glo, 96 h), DEL; type: cell-based; conditions: read-out: DEL IC50, Table 29, CPT free drugs, anaplastic large cell lymphoma cells DEL, CellTiter-Glo
Write the numeric value and follow it with the unit.

Consider the worked cases shown below.
>>> observed_result("CC[C@@]1(O)C(=O)OCc2c1cc1n(c2=O)Cc2c-1nc1cc3c(cc1c2CNCC(O)CN1CCOCC1)OCO3 (stereo partly shown)")
"9 nM"
>>> observed_result("CC[C@@]1(O)C(=O)OCc2c1cc1n(c2=O)Cc2c-1nc1cc3c(cc1c2CNCCCN1CCNCC1)OCO3")
"2 nM"
>>> observed_result("CC[C@@]1(O)C(=O)OCc2c1cc1n(c2=O)Cc2c-1nc1cc3c(cc1c2CNC1CCNCC1)OCO3")
"7 nM"

Input line: Could you share what IC50 was measured for CC[C@@]1(O)C(=O)OCc2c1cc1n(c2=O)Cc2c-1nc1cc3c(cc1c2CNCCN1CCNCC1)OCO3 , tested on anaplastic large cell lymphoma cells (DEL)?
Output line: 8 nM

----------
tested on: renal carcinoma cells (786-O); experiment: In vitro potency (CellTiter-Glo, 96 h), 786-O; format: cell-based; conditions: Homo sapiens, 786-0, 96 h, read-out: 786-O IC50, camptothecin free drug, 96 h
measurement-kind: IC50 (nM)
Express your answer in nM, writing the number without its unit.

Consider the worked cases shown below.
>>> observed_result("CC[C@@]1(O)C(=O)OCc2c1cc1n(c2=O)Cc2c-1nc1cc3c(cc1c2CN(C)C)OCO3 [Compound 7ae]")
39
>>> observed_result("CC[C@@]1(O)C(=O)OCc2c1cc1n(c2=O)Cc2c-1nc1cc3c(cc1c2CNCCCS(N)(=O)=O)OCO3 [Compound 7e]")
25
>>> observed_result("CC[C@@]1(O)C(=O)OCc2c1cc1n(c2=O)Cc2c-1nc1cc3c(cc1c2CNCC(O)CN1CCOCC1)OCO3 (stereo partly shown) [Compound 7i]")
128
>>> observed_result("CC[C@@]1(O)C(=O)OCc2c1cc1n(c2=O)Cc2c-1nc1cc3c(cc1c2CNC[C@@H](O)CO)OCO3 [Compound 7u]")
122

Input line: Consider the compound CC[C@@]1(O)C(=O)OCc2c1cc1n(c2=O)Cc2c-1nc1cc3c(cc1c2CNCCCS(C)(=O)=O)OCO3 [Compound 7c] and give its measured IC50.
Output line: 5

Input line: Consider the compound CC[C@@]1(O)C(=O)OCc2c1cc1n(c2=O)Cc2c-1nc1cc3c(cc1c2CNCCCN(C)C)OCO3 [Compound 7t] and give its measured IC50.
Output line: 153

Input line: Consider the compound CC[C@@]1(O)C(=O)OCc2c1cc1n(c2=O)Cc2c-1nc1cc3c(cc1c2CNC1CCOCC1)OCO3 [Compound 7k] and give its measured IC50.
Output line: 57
